Overview of reported IC50 across a group of compounds:
target: human recombinant HDAC1 (Homo sapiens, UniProt Q13547); experiment: HDAC1 inhibition, fluorometric method (Enzo Fluorometric Drug Discovery Assay Kit); conditions: read-out: Inhibitory activity IC50 on HDAC1
Sequence (Q13547 whole entry): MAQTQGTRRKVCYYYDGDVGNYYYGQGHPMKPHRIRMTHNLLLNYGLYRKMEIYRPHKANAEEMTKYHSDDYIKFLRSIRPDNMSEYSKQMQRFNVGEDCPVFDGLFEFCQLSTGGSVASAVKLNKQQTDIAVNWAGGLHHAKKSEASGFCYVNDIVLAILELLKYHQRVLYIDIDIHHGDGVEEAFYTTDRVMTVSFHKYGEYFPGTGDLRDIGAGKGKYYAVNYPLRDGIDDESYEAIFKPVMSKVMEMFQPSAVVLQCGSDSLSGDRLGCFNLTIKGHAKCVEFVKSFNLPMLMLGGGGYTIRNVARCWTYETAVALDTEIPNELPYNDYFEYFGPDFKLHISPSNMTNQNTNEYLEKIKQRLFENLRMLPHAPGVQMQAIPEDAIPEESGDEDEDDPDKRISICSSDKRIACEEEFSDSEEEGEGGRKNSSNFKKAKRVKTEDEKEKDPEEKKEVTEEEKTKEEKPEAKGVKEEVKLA
State just the number; it will be interpreted in nM.

Examples from the recorded data:
Lab note: measured IC50 of CN(C)c1nc2c(Br)c(Br)c(Br)c(Br)c2n1CCCCCC(=O)NO [Compound 11b] was 1460

// sample CN(C)c1nc2c(Br)c(Br)c(Br)c(Br)c2n1CCCCCCCC(=O)NO [Compound 11d] , its IC50 was 13700

Note to self: IC50 recorded for CN(C)c1nc2c(Br)c(Br)c(Br)c(Br)c2n1Cc1cn(CCCC(=O)NO)nn1 [Compound 7a] was 1430

More entries:
IC50 in this record for O=C(NO)c1ccc(Cn2nnc3c(Br)c(Br)c(Br)c(Br)c32)cc1 [Compound 15b] : 4220
